Hello, the source for this data is the supplement of paper PMC7726561, in case you need it.

Target Of Assay: HLA-A*02:01;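 further: lysates heated 10 min at 37–73 °C, complexes pulled down with pan-HLA I antibody, peptide signal by DIA-MS relative to 37 °C, Tm where half the complex is unfolded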
Procedure Details: thermal melting temperature (Tm) of peptide-HLA complex; higher = more thermostable pHLA complex
Conditions: C1R-A*02:01
In all, about 1,100 sequences were measured (“thermal melting temperature (Tm) of peptide-HLA complex”: median about 58, lowest 2% from about 42 on). This is one part of a sample in which the lowest values are shown more often than they occur.
Measure Name: thermal melting temperature (°C)
Respond with the bare value in °C.

Before answering, review these 5 worked examples.
- Sequence Content: "SIAPRMMSV"
  Unit Tag: "°C"
  Numeric Readout: 48.1
- Sequence Content: "ALAPAPPQV"
  Unit Tag: "°C"
  Numeric Readout: 62.1
- Sequence Content: "LLPSEGIVHL"
  Unit Tag: "°C"
  Numeric Readout: 41.3
- Sequence Content: "FVMETFVHL"
  Unit Tag: "°C"
  Numeric Readout: 57
- Sequence Content: "SLDPHAQVAV"
  Unit Tag: "°C"
  Numeric Readout: 48.9

Kindly consider the entry below.
Sure, the documented thermal melting temperature for "ALGPGVPHI" is 58
